Could you please report measured protein stability index for the items listed next?
method-summary: protein stability index of a GFP-peptide fusion (GPS, HEK-293T) (PSI 1-6); higher = more stable;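 note: 24-mer peptide tiles fused after GFP, lentivirally expressed, FACS-sorted into six equal bins by GFP/DsRed ratio, decoded by Illumina sequencing, PSI is the read-weighted mean bin number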
assay-setup: treatment: DMSO; c terminus: a fixed tail appended
Give bare numbers.

Some solved cases for reference:
biosequence: SLKKGSLVKNLKDTLGLGKTRRKT [NCK2]
protein stability index: 3.96

biosequence: YLNYYQGMLDVADESLTDLEAQPY [P3H4]
protein stability index: 2.8

biosequence: AALSASMASLLEDLSHIEGLSQAP [SERTAD1]
protein stability index: 2.81

Return reported protein stability index values for all items listed beneath this line.
1. ARLMRSNYPPPLSSAALRGAGPTR [C6orf223]
2. DWLRRPLGEDNQPETQLFWDKEPW [TLE6]

1: 3.79; 2: 3.35

Return reported protein stability index values for all items listed beneath this line.
1. GGFGQVYKVRHVHWKTWLAIKCSP [RIPK4]
2. FSPDFTLRNTLKSTSEDSLVKQEC [FAN1]
3. LVTYTNRYIIFKRNTLNQPCSGSV [GMCL1]

2.35
2.67
2.29

Return reported protein stability index values for all items listed beneath this line.
1. AAFGHVQRAEMLPKTSGTRATSLG [CPOX]
2. DSEFSMQEPMVPAKLGTQAEKDRR [PPFIA4]
3. RVQGVLRGRAREREQLQAEASERF [HES6]
4. GGAGKGRTPSAFPQTPAAPPATLG [EHMT1]

[3.82, 4.9, 4.39, 4.6]

For PGRPARLDQLLDMPAAGLAVQLRH [SPSB4] , what is its reported protein stability index?
3.04

====

Could you please report measured protein stability index for the items listed next?
method-summary: protein stability index of a GFP-peptide fusion (GPS, HEK-293T) (PSI 1-6); higher = more stable
assay-setup: treatment: MLN4924 1 uM, 8 h; c terminus: a fixed tail appended
Numbers only.

biosequence: TFQNSVFVATFLRYAVVLNATWLV [SCD]
measured-metric: protein stability index
reported-value: 3.43
--
biosequence: IIESFTELARIVLLRHRMNWLGRP [RAB40A]
measured-metric: protein stability index
reported-value: 2.79
--
biosequence: SFSNYRPFEPQALGLSPSWRLTGF [SEPHS2]
measured-metric: protein stability index
reported-value: 2.01
--
biosequence: FLDNGYGHCLLDKPEAPLHLPVTF [ADAMTS4]
measured-metric: protein stability index
reported-value: 2.16
--
biosequence: ARVLDRRGCSRVEGGGTSLHVACE [ANKRD9]
measured-metric: protein stability index
reported-value: 3.47

Return reported protein stability index values for all items listed beneath this line.
1. AAWQGHLPIVKLLAKQPGVSVNAQ [RIPK4]
2. FRCSVCSRQLLPGDEFSLREHELL [ISL2]
3. YIPRRLEEAAMQKCLVTEAQTLLR [RSAD1]
4. GSYSSTMNGHQNGLDSPPLYPSAP [ESRRG]
5. PAIADLFAESLQCKVDCEANLTPN [P3H4]
6. NESRYMIYEFWENSSVWNSHLQTN [NECAB1]

3.07
2.24
2.63
4.3
4.05
2.24

Return reported protein stability index values for all items listed beneath this line.
1. NPPRAEFNYSVGFKDLNESLNALE [APBB1IP]
2. TFLTVTDLIGLPWVCFIYTIMSLA [SLC2A12]

[3.65, 2.84]

Data origin: the supplement of paper PMC10567573
